Source listed as paper PMC6769459.

system-name: IL-6Rα (Homo sapiens, UniProt P08887)
Construct: purchased R&D Systems
Sequence (P08887 20-355 limits assumed): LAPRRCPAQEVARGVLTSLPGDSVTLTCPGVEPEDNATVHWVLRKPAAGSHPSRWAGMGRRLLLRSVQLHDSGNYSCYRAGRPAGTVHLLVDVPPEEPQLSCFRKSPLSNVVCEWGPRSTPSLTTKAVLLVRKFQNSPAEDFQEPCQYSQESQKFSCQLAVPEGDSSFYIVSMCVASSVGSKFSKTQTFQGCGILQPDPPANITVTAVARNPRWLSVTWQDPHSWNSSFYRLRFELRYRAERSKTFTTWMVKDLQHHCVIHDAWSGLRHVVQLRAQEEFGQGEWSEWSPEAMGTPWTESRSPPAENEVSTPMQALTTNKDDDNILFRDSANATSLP
test-method-notes: ELISA-based competitive binding assay, IL-6 binding to immobilized IL-6Rα
test-conditions: 50 μM flavonoid
measurement-kind: inhibition of IL-6 binding to IL-6Rα (%)

>  <compound>
O=c1cc(-c2ccc(O)c(O)c2)oc2cc(O)cc(O)c12 [luteolin]

>  <system-name>
IL-6Rα (Homo sapiens, UniProt P08887)

>  <scale-unit>
%

>  <reported-value>
22.4

$$$$
>  <compound>
O=c1cc(-c2ccccc2)oc2cc(O)cc(O)c12 [chrysin]

>  <system-name>
IL-6Rα (Homo sapiens, UniProt P08887)

>  <scale-unit>
%

>  <reported-value>
31.8

$$$$
>  <compound>
O=c1c(O)c(-c2ccc(O)c(O)c2)oc2cc(O)cc(O)c12 [quercetin]

>  <system-name>
IL-6Rα (Homo sapiens, UniProt P08887)

>  <scale-unit>
%

>  <reported-value>
29.2

$$$$
>  <compound>
O=c1c(O)c(-c2ccccc2)oc2cc(O)cc(O)c12 [galangin]

>  <system-name>
IL-6Rα (Homo sapiens, UniProt P08887)

>  <scale-unit>
%

>  <reported-value>
34.3

$$$$
